Listed next: entries and their corresponding log10 of intrinsic clearance, human liver microsomes.
MEASURED_ATTRIBUTE: log10 of intrinsic clearance, human liver microsomes (log10 of the value in mL/min/kg)

{"MOLECULE": "COC(=O)c1cccc2c1CCCN2C(=O)c1ccccc1", "VALUE_REPORTED": 2.89}
{"MOLECULE": "CC(=O)N1c2ccc(S(=O)(=O)Nc3cccc(-c4cnco4)c3)cc2CC1C (centres undefined)", "VALUE_REPORTED": 1.83}
{"MOLECULE": "Cc1cc(C(=O)NCC2CC2)n2nccc2n1", "VALUE_REPORTED": 1.41}
{"MOLECULE": "O=C1NCN(c2ccccc2)C12CCN(CCCOc1ccc(F)cc1)CC2", "VALUE_REPORTED": 1.87}
{"MOLECULE": "CCc1cc2c(Nc3cnn(CC)c3)ncnc2s1", "VALUE_REPORTED": 1.61}
{"MOLECULE": "Cc1cc2ccccc2n1CC(=O)N1CCc2ccc(O)cc2C1", "VALUE_REPORTED": 1.40}
{"MOLECULE": "Cc1noc(C2CCN(CC(N)=O)CC2)n1", "VALUE_REPORTED": 1.00}
{"MOLECULE": "Cc1ccc(C)c(NC(=O)c2cccc(-c3ncon3)c2)c1", "VALUE_REPORTED": 1.62}
{"MOLECULE": "O=C(/C=C\\n1cnc(-c2cc(C(F)(F)F)cc(C(F)(F)F)c2)n1)NNc1ccccn1", "VALUE_REPORTED": 1.14}
{"MOLECULE": "Cc1nc(NCC(C)(C)c2ccccc2)n(C)n1", "VALUE_REPORTED": 1.03}
{"MOLECULE": "C[C@]1(O)CN(C(=O)Cn2cnc3ccccc3c2=O)CC[C@@H]1Oc1ccccc1", "VALUE_REPORTED": 0.85}
{"MOLECULE": "O=C(c1cccc(Cl)c1)N1CCN(C(=O)c2ccc3ccccc3c2O)CC1", "VALUE_REPORTED": 1.46}
{"MOLECULE": "CCCCCCCCc1ccc(CCC(N)(CO)CO)cc1", "VALUE_REPORTED": 0.88}
